- testContext: buffer; pH 7.4; 200.0 µM
Measured solubility kinetic of individual entries
A number alone suffices; assume µg/mL.

COC(=O)c1ccc(N2CCOCC2)c(NC(=O)c2ccco2)c1 : 2.8
CC(=O)O.O=S(=O)(CCc1ccncc1)C1Cc2cccc3cccc1c23 (stereo not drawn) : 49.4
COc1ccccc1NC(=O)C(C)OC(=O)CC1CCCC1 (stereo not drawn) : 29.4
CC(=O)N/C(=N/c1nc(C)cc(C)n1)Nc1cccc(C)c1C : 4.9
Cc1c(C(=O)NCc2ccco2)oc2ccccc12 : 6.3

Now, please, on to the next compound.
Given the entry `Cc1cccn2c(=O)c(/C=N/O)c(Nc3ccccc3F)nc12` , report its measured solubility kinetic.
0.2

----------
- testContext: buffer; pH 7.4; 200.0 µM
Outcome: yes (1) for solubility kinetic of at least 20 µg/mL; no (0) for anything lower.

Look over these answered cases.
CC(C)(C)c1ccc(N2C(=N)SCC2=O)cc1 : no (0)
CCOc1cccc(C(=O)NC(=S)Nc2ccc(Cl)cc2C(=O)O)c1 : yes (1)
Cc1ccc(C)c(NC(=O)CCN2C(=O)c3ccccc3C2=O)c1 : no (0)
Cc1nn(CC(=O)NCc2ccco2)c(C)c1[N+](=O)[O-] : yes (1)
CN(C)S(=O)(=O)Nc1cccc(Br)c1 : yes (1)

Does the molecule CC1CCCN(C(=O)c2cc(-c3cccs3)nc3ccccc23)C1 (configuration not stated) have recorded solubility kinetic that is 20 µg/mL or more?
no (0)

Cool, now `CCOC(=O)c1ccccc1NC(=O)COC(=O)C1CCCC1`
no (0)

Cool, now `O=C(O)c1csc(-c2cccc(Cl)c2)n1`
yes (1)

Cool, now `O=c1cc(-c2ccccc2O)nc(-c2ccccc2)[nH]1`
no (0)

Cool, now `COc1ccc(CCNC(=O)CCC(=O)NC2CCCCC2)cc1OC`
yes (1)

Cool, now `CCOC(=O)N1CCC(NC(=O)Cc2ccccc2)CC1`
yes (1)

Cool, now CCOC(=O)C1CCN(C(=O)C(C)Sc2nnc3ccccn23)CC1 (configuration not stated)
yes (1)

----------
- testContext: buffer; pH 7.4; 200.0 µM
readoutType: solubility kinetic

Cc1c(/C=N/O)c2ccccn2c1C(=O)c1ccc(F)cc1 : 5.5 µg/mL
Cc1ccccc1C(=O)NCCCNC(=O)c1ccccn1 : > 44.6 µg/mL
Cc1ccc(S(=O)(=O)N2C(=O)CCC2C(N)=O)cc1 (configuration not stated) : > 42.3 µg/mL
c1ccc(CN2CCOCCOCCOCC2)cc1 : > 39.8 µg/mL
C=CCNC(=O)c1ccccc1CCc1ccccc1 : > 39.8 µg/mL
COc1ccc(C(=O)N[C@H](C(=O)NCc2ccc(C)cc2)C(C)C)cc1 : 1.1 µg/mL
N/C(=N\OC(=O)CSc1ccccc1)c1ccccn1 : > 43.1 µg/mL
Cc1cc(Cl)ccc1OC(C)C(=O)NC(C)C1CCCO1 (configuration not stated) : > 46.8 µg/mL
COc1ccc(Cl)cc1NC(=O)C(OC)c1ccccc1 (configuration not stated) : 3.9 µg/mL
O=S(=O)(Cc1ccccc1)NCCc1ccc(F)cc1 : 34.3 µg/mL

Given the entry `CN(C(=O)/C=C/c1cnc2ccccc2c1)C1CCCCC1` , report its measured solubility kinetic.
> 44.2 µg/mL

Cool, now COc1ccc(C(=O)C2CCCN(CCO)C2)c(C)c1 (configuration not stated)
30.3 µg/mL
